# TEST_METHOD_NOTES: cell viability in Huh7 cells, primary screen, cytotoxicity control for HCV replication inhibitor project, CellTiter-Glo luminescence, basal, 48 h (AID 1143);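 further: Huh7 hepatoma cells carrying a hepatitis C replication reporter with no stimulus; test concentration not given here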
# SETUP_CONDITIONS: Huh7 HCV replicon, higher = more signal, called active from +8 up or from −8 down
MEASURE_NAME: z-score
I only need the number, thanks.

Guide cases for z-score, answers given:
C=CCNC(=O)[C@H]1[C@@H]2C(=O)O[C@@H](c3ccccc3)[C@@H](c3ccccc3)N2[C@@H](c2ccc(O)cc2)[C@]12C(=O)N(C(=O)OCCOC)c1ccc(C#CC3=CCCCC3)cc12
-3.95
O=C1[C@H]2[C@H]3[C@H](O)[C@H](O)CC(=NOCc4ccccc4)[C@@H]3CC[C@H]2C(=O)N1C1CCCCC1
-0.48

// moving on: another record for z-score
Report z-score for COCCNC(=O)OCC1CCCC2(CC(OC(=O)NCCc3ccc(F)cc3)CC(CCC(=O)N[C@@H](C)C(=O)OC)O2)O1 (stereo partly drawn) please.
-0.126

----------
# TEST_METHOD_NOTES: PSAC antagonists in infected red cells, primary screen, cell-based, P. falciparum Indochina, OD700, 2 h (AID 1155);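 further: lysis reports solute entry through the parasite surface anion channel PSAC; channel blockers reduce lysis of infected cells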
# SETUP_CONDITIONS: P. falciparum Indochina infected erythrocytes, osmotic lysis OD700; higher = more signal, called active from +8 up or from −8 down
Returns one of satisfied or not satisfied; satisfied when z-score is >= 0.5.

As a guide, the following entries are already answered.
O=C1[C@H]2[C@H]3[C@H](O)[C@H](O)CC(=NOC[C@@H](O)COCc4ccco4)[C@@H]3CC[C@H]2C(=O)N1c1ccc(F)cc1F
satisfied
CN(C)c1ccc(C(O)C2C=CC3C(=O)N(c4ccccc4)C(=O)C3N2Nc2ccccc2F)cc1 (configuration not stated)
satisfied
O=C1O[C@@H](c2ccccc2)[C@@H](c2ccccc2)N2[C@@H](c3ccc(OCCO)cc3)[C@]3(C(=O)Nc4ccccc43)[C@@H](C(=O)N3CCN(c4ncccn4)CC3)[C@H]12
satisfied
CCOC(=O)C1=CC[C@H]2C(=O)N(CC)C(=O)[C@@H]12
satisfied
CCOC(=O)C[C@H]1[C@H](OC(=O)c2ccc(C(=O)c3ccccc3)cc2)[C@@H](NC(=O)c2ccc(-c3ccccc3)cc2)c2cc(OCCCO)ccc2N1C(=O)c1ccc2ccccc2n1
not satisfied
C[C@H]1CC[C@@H](C(=O)O)N[C@@H]1c1ccc(C#CCN(C)C)cc1
not satisfied

Hi team, for CCOC(=O)[C@H](CC(C)C)NC(=O)CCC1CC(OC(=O)NCc2cccc3ccccc23)CC2(CCCC(COC(=O)NCCN3CCOCC3)O2)O1 (some centres not stated) , is the recorded z-score at or above 0.5?
not satisfied

----------
# TEST_METHOD_NOTES: small-molecule binders of probe aNOTCH3, primary screen, biochemical, small-molecule microarray, 635/667 nm fluorescence (AID 1120);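 further: probe is a biotin-tagged antibody raised against NOTCH3 rather than NOTCH3 protein; score merges spot fluorescence near 667 nm with spot signal to noise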
# SETUP_CONDITIONS: higher = more signal
MEASURE_NAME: composite z-score
Form field (numeric): enter value without unit.

Example entries begin here.
COC(=O)[C@@H]1CC[C@H](C)[C@@H](c2ccc(C)cc2)N1C(=O)c1ccc(C=NOC(C)CN2CCCCc3nc(C)c(C)cc32)cc1 (stereo not given in full)
0.0916
COC(=O)c1c(CC[C@@H](CO)NC(=O)N[C@H](Cc2ccccc2)Cn2cc(-c3ccccc3N)nn2)oc(C(C)=O)c1C(=O)OC
0.237
CC(C)c1ccc(NN2C(C(O)c3ccc4c(c3)OCO4)C=CC3C(=O)N(c4ccccc4)C(=O)C32)cc1 (stereo not given)
0.166
CC(C)CON=C1C[C@@H](O)[C@@H](O)[C@@H]2[C@@H]3C(=O)N([C@@H](C)c4ccccc4)C(=O)[C@@H]3CC[C@H]12
0.0297
C[C@@H]1C=CCC(=O)OC[C@H](C)C(=O)OC[C@H]2O[C@H]1C=C[C@H]2O
0.2

What measured composite z-score goes with C=C(COC)/C(=C/C[C@H](OC(=O)c1ccncc1)c1ccc(CO)o1)c1cc(C(=O)OC)ccc1OC ?
0.0222

Item COCCNC(=O)OCC1CCCC2(CC(OC(=O)NCCc3ccc(F)cc3)CC(CCC(=O)N[C@@H](C)C(=O)OC)O2)O1 (stereo not given in full) has what recorded composite z-score?
0.0228

Which composite z-score is reported for this compound? O=C1CCCC2OC12C(O)CCc1ccccc1 (stereo not given)
-0.0581

Look up composite z-score: CO[C@@H]1COC(=O)CCC[C@@H](C)[C@H](OC)COC(=O)[C@H](Cc2ccccc2)NC(=O)CC=C[C@H]1C
-0.16

What does the record list as composite z-score for COc1ccccc1CN1C(=O)c2ccccc2[C@@H](C(=O)NCC(F)(F)F)[C@@H]1c1ccc(CO)cc1 ?
-0.15

Report composite z-score for CO[C@@H]1COC(=O)CC=C[C@@H](C)[C@H](OC)COC(=O)[C@H](COCc2ccccc2)NC(=O)CC=C[C@H]1C please.
-0.0584

Item COC(=O)[C@H](C)NC(=O)CCC1CC(OC(=O)NCc2ccc3c(c2)OCO3)CC2(CCCC(COC(=O)NCCOc3ccccc3)O2)O1 (stereo not given in full) has what recorded composite z-score?
0.14

# input compound: C#CCCCON=C1C[C@@H](O)[C@@H](O)[C@@H]2[C@@H]3C(=O)N(c4cccc(Oc5ccccc5)c4)C(=O)[C@@H]3CC[C@@H]12 ; wanted: its composite z-score
-0.0311

I would be grateful if you could share the reported composite z-score for CCOC(=O)[C@H](CC(C)C)NC(=O)CCC1CC(OC(=O)NCc2cccc3ccccc23)CC2(CCCC(COC(=O)NCCc3ccccc3OC)O2)O1 (stereo not given in full) .
-0.155

Item COC(=O)[C@H](C)NC(=O)CCC1CC(OC(=O)NCc2cccc3ccccc23)CC2(CCCC(COC(=O)NCC3CCCCC3)O2)O1 (stereo not given in full) has what recorded composite z-score?
0.175
